Data origin: patent US10308662B2

# study-target: UniProt:O60885
# method-notes: BRD4 inhibition assay (region not specified)
# Format: binding
measurement-label: BRD4 inhibition

>>> result_value("CC[C@H](Nc1ncnc2[nH]cnc12)c1nc2cccc(F)c2c(=O)n1-c1ccccc1")
"no BRD4 inhibition"
>>> result_value("Nc1cc(C(F)(F)F)c(-c2cc(N3CCOCC3)nc(N3CCOCC3)n2)cn1 [BKM120, reference compound]")
"no BRD4 inhibition"

###

# Test system: p-AKT(Ser473)
# method-notes: Western blot of pAKT in SKNBE(2) cells
# Format: cell-based, human
# condition-set: 24 hrs treatment, 50 ng/ml IGF stimulation
measurement-label: pAKT level by Western blot

Consider the worked cases shown below.
>>> result_value("Nc1cc(C(F)(F)F)c(-c2cc(N3CCOCC3)nc(N3CCOCC3)n2)cn1 [BKM120, reference compound]")
"decreased pAKT"
>>> result_value("O=c1cc(N2CCOCC2)oc2c(-c3ccccc3)cccc12")
"decreased MYCN and pAKT"
>>> result_value("CC[C@H](Nc1ncnc2[nH]cnc12)c1nc2cccc(F)c2c(=O)n1-c1ccccc1")
"decreased pAKT"
>>> result_value("O=c1cc(N2CCOCC2)oc2c(-c3ccc4c(c3)OCCO4)csc12")
"decreased MYCN and pAKT"

Now look at this entry.
GET /values?readout=pAKT level by Western blot&item= `Cn1c(=O)n(-c2ccc(C(C)(C)C#N)cc2)c2c3cc(-c4cnc5ccccc5c4)ccc3ncc21`
decreased pAKT
